Values compiled from ChEMBL document CHEMBL1146034.

test: Half life in B6C3F1 mouse liver microsome; assay type: ADME; conditions: liver microsomes
VALUE TYPE: half-life

Here is how some compounds turned out for half-life.
CHEMICAL STRING: CON=C(N)c1ccc(-c2ccc(-c3ccc(C(N)=NOC)cc3)cc2)cc1
half-life: > 1.5 h

CHEMICAL STRING: CONC(=N)c1ccc(-c2ccc(-c3ccc(C(=N)NOC)cc3)c(F)c2)cc1
half-life: > 1.5 h

CHEMICAL STRING: CONC(=N)c1ccc(-c2ccc(-c3ccc(C(=N)NOC)cn3)cc2)nc1
half-life: > 1.5 h

CHEMICAL STRING: CONC(=N)c1ccc(-c2cnc(-c3ccc(C(=N)NOC)cc3)nc2)cc1
half-life: > 1.5 h

CHEMICAL STRING: CONC(=N)c1ccc(-c2ccc(-c3ccc(C(=N)NOC)cc3)o2)cc1
half-life: < 0.25 h

Kindly consider the entry below.
Entry CO/N=C(/N)c1ccc(-c2ccc(-c3ccc(C(=N)NOC)cc3)nc2)cc1 : reported half-life = ?
0.917 h

---

system: Mus musculus; experiment: Antiprotozoal activity in mouse infected with Trypanosoma brucei rhodesiense STIB900 measured as average days of survival at 25 mg/kg, po; assay type: functional
I would appreciate it if you labelled entries Satisfied when Survival is 10 days or higher, otherwise Not satisfied.

Recorded results for 4 compounds are shown here.
CHEMICAL STRING: N=C(NO)c1ccc(-c2ccc(-c3ccc(/C(N)=N/O)cc3)cc2)o1
CAT: Satisfied

CHEMICAL STRING: CONC(=N)c1ccc(-c2ccc(-c3ccc(C(=N)NOC)cc3)c(F)c2)cc1
CAT: Satisfied

CHEMICAL STRING: CONC(=N)c1ccc(-c2ccc(-c3ccc(C(=N)NOC)cn3)cc2)nc1
CAT: Satisfied

CHEMICAL STRING: CO/N=C(\N)c1ccc(-c2ccc(-c3ccc(C(=N)NOC)cc3)cc2)o1
CAT: Not satisfied

Test whether the compound CONC(=N)c1ccc(-c2cnc(-c3ccc(C(=N)NOC)cc3)nc2)cc1 records Survival of 10 days or higher.
Satisfied

Check if Survival >= 10 days (inclusive). Item: CO/N=C(/N)c1ccc(-c2ccc(-c3ccc(C(=N)NOC)cc3)nc2)cc1
Satisfied

Textbook exercise: given the entry N=C(NO)c1ccc(-c2ccc(-c3ccc(/C(N)=N\O)cc3)cc2F)cc1 , state whether its Survival is greater than or equal to 10 days.
Satisfied

---

test system: Mus musculus; test: Antiprotozoal activity in mouse infected with Trypanosoma brucei rhodesiense STIB900 measured as average days of survival at 25 mg/kg, po; format: functional
VALUE TYPE: Survival (days)
The response must be a number in days with no trailing unit.

CHEMICAL STRING: N=C(NO)c1ccc(-c2ccc(-c3ccc(/C(N)=N\O)cc3)cc2C(F)(F)F)cc1
TEST VALUE: 9

Turning to the following compound.
Please state recorded Survival (tested on Mus musculus) of CONC(=N)c1ccc(-c2ccc(-c3ccc(C(=N)NOC)cc3)c(C(F)(F)F)c2)cc1
7.25
